Molecular target: T1, EsCas13d, nuclease-dead (Eubacterium siraeum, UniProt B0MS50, R295A;H300A;R849A;H854A)
T1 sequence: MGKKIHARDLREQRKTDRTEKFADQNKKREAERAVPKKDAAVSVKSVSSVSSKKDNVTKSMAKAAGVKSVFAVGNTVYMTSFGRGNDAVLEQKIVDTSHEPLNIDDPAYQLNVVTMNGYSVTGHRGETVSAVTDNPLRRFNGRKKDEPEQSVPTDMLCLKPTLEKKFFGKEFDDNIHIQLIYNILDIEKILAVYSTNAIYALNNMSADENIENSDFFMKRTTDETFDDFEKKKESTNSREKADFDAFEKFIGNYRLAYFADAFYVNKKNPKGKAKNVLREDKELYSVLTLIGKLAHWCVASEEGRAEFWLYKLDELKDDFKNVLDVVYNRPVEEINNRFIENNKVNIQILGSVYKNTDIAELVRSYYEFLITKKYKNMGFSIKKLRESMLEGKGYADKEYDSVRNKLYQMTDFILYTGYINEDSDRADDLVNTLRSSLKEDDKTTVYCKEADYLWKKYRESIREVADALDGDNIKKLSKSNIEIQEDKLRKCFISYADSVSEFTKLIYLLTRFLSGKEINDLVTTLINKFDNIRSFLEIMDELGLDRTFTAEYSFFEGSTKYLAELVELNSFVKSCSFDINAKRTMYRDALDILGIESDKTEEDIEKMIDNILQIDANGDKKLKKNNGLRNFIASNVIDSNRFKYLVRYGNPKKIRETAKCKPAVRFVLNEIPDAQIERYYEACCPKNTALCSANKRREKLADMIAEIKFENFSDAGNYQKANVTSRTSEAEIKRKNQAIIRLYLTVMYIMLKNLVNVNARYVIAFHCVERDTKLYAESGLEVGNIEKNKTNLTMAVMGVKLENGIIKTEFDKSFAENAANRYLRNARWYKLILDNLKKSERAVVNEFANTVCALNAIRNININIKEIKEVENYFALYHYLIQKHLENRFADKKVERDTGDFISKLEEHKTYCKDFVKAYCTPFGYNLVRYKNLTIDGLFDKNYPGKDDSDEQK
Test: crRNA (strand 1, pre-loaded); Mg2+; 40 mM Tris-HCl pH 7.5, 150 mM NaCl, 6 mM MgCl2, 1 mM DTT, 0.1% Tween-20, 0.2 mg/ml BSA; 25 C; 10 min per concentration, then washed
Conditions: tags: His6-TwinStrep-SUMO cleaved; N-terminal SNAP kept (SNAP-Surface 488); label: 3' end held by stalled T7 RNA polymerase
Entries and their Kd
Note: state the figure and append the unit.

Would you please look over these solved cases?
binder="target 2 MT 5'PFS UAC 3'PFS CUU (mixed) RNA 1: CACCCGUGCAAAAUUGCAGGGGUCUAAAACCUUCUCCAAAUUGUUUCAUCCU RNA 2: GGGAAUGGAUCCACAUCUACGAAUUCUACAGGAUGAAACAAUUUGGAGAAGCUUAGAUCGGAAGAGCACACGU" measured_endpoint=Kd result="7.2 nM"
binder="target 1 insU 3' of 15,insA 3' of 3 (mixed) RNA 1: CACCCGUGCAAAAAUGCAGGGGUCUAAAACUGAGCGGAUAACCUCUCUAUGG RNA 2: GGGAAUGGAUCCACAUCUACGAAUUCGUACCAUAGAGUAGGUUAUCCGCUACACCGAGAUCGGAAGAGCACACGU" measured_endpoint=Kd result="8.9 nM"
binder="target 1 insA 3' of 19,insU 3' of 1 (mixed) RNA 1: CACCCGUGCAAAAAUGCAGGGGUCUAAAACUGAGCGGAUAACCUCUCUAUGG RNA 2: GGGAAUGGAUCCACAUCUACGAAUUCGUACCAUAAGAGAGGUUAUCCGCUCAUCCGAGAUCGGAAGAGCACACGU" measured_endpoint=Kd result="20 nM"
binder="target 1 insG 3' of 22,insG 3' of 6 (mixed) RNA 1: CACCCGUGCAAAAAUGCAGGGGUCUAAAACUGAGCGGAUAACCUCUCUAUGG RNA 2: GGGAAUGGAUCCACAUCUACGAAUUCGUACGCAUAGAGAGGUUAUCCGGCUCACCGAGAUCGGAAGAGCACACGU" measured_endpoint=Kd result="51 nM"

Param item = target 3 insG 3' of 7,insC 3' of 2 (mixed) RNA 1: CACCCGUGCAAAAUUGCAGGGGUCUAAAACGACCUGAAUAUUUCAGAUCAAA RNA 2: GGGAAUGGAUCCACAUCUACGAAUUCGUUUUUGAUCUGAAAUAUUGCAGGUCCUGCAGAUCGGAAGAGCACACGU ; retrieve measured Kd. 88 nM

Param item = target 1 MT 5'PFS GGG 3'PFS GGU (mixed) RNA 1: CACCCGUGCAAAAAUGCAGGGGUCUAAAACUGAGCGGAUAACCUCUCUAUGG RNA 2: GGGAAUGGAUCCACAUCUACGAAUUCGGGCCAUAGAGAGGUUAUCCGCUCAGGUAGAUCGGAAGAGCACACGU ; retrieve measured Kd. 61 nM

Param item = target 2 MT 5'PFS GAU 3'PFS ACU (mixed) RNA 1: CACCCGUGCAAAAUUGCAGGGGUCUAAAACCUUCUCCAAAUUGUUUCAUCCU RNA 2: GGGAAUGGAUCCACAUCUACGAAUUCGAUAGGAUGAAACAAUUUGGAGAAGACUAGAUCGGAAGAGCACACGU ; retrieve measured Kd. 20.1 nM

Param item = target 2 MT 5'PFS GGA 3'PFS AGU (mixed) RNA 1: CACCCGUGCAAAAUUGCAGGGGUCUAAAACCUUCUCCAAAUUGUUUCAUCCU RNA 2: GGGAAUGGAUCCACAUCUACGAAUUCGGAAGGAUGAAACAAUUUGGAGAAGAGUAGAUCGGAAGAGCACACGU ; retrieve measured Kd. 14.1 nM
